target: Ggly (Homo sapiens); assay: Absorption spectroscopy (280 nm) of metal ion binding to Ggly, fitted with BioEqs; settings: Kd1 (first iron binding site), Ggly 10 μM, pH 4.0, 298 K; 2 site model (Fe, Ga) or 2 site competitive model vs Fe^3+ (In, Ru)
REPORTED ENDPOINT: Kd (nM)
Give bare numbers, in nM.

Prompt: GET /values?readout=Kd&item= `[Fe+3]`
Completion: 5.7

###

target: Ggly (Homo sapiens); assay: Absorption spectroscopy (280 nm) of metal ion binding to Ggly, fitted with BioEqs; conditions: read-out: Kd2 (second site); Ggly 10 μM, pH 4.0, 298 K; 2 site or 2 site competitive model
Assignment: determine reported pKd for the given compounds.
Numbers only, as −log10 of the molar value.

RECORD SMILES: [Ga+3]
pKd: 5.64
//
RECORD SMILES: [In+3]
pKd: 4.85

Prompt: GET /values?readout=pKd&item= `[Ru+3]`
Completion: 3.44

###

target: Gamide (Homo sapiens); construct: amidated gastrin34 and amidated gastrin17 (Gamide); purchased Auspep (Clayton, Australia); experiment: Absorption spectroscopy (280 nm) of metal ion binding to Gamide, fitted with BioEqs; details: Gamide; 2 site competitive model; read-out: Kd3 (formation of mixed FeGastrinM complex)
REPORTED ENDPOINT: Kd (nM)
One number for each entry, in nM.

RECORD SMILES: [Ru+3]
SUBJECT OF TEST: Gamide (Homo sapiens)
Kd [nM]: 17

Kindly consider the entry below.
Prompt: GET /values?readout=Kd&item= `[In+3]`
Completion: 4

###

target: Gamide (Homo sapiens, UniProt P01350); construct: amidated gastrin34 and amidated gastrin17 (Gamide); purchased Auspep (Clayton, Australia); experiment: Absorption spectroscopy (280 nm) of metal ion binding to Gamide, fitted with BioEqs; details: Gastrin/Gamide, 2 site model; read-out: dissociation constant (Kd), first site
REPORTED ENDPOINT: pKd
Answers are plain numbers, as −log10 of the molar value.

Prompt: Provide the documented pKd with Gamide (Homo sapiens, UniProt P01350) as the system for [Ga+3] [Ga^3+]
Completion: 6.48

###

molecular target: Gamide (Homo sapiens, UniProt P01350); construct: amidated gastrin34 and amidated gastrin17 (Gamide); purchased Auspep (Clayton, Australia); assay: Absorption spectroscopy (280 nm) of metal ion binding to Gamide, fitted with BioEqs; details: Gamide 10 μM, pH 4.0, 298 K; 2 site or 2 site competitive model; read-out: Kd2 (second site)
REPORTED ENDPOINT: Kd (nM)
Answers are plain numbers, in nM.

A selection of reference data follows.
MOLECULE: [Fe+3] [Fe^3+]
Kd (nM): 0.085
//
MOLECULE: [Ru+3] [Ru^3+]
Kd (nM): 12000
//
MOLECULE: [Ga+3] [Ga^3+]
Kd (nM): 1100

Kindly consider the entry below.
Prompt: GET /values?readout=Kd&item= [In+3] [In^3+]
Completion: 170

###

molecular target: Gamide (Homo sapiens, UniProt P01350); construct: amidated gastrin34 and amidated gastrin17 (Gamide); purchased Auspep (Clayton, Australia); assay: Absorption spectroscopy (280 nm) of metal ion binding to Gamide, fitted with BioEqs; settings: Gamide 10 μM, pH 4.0, 298 K; 2 site model (Fe, Ga) or 2 site competitive model vs Fe^3+ (In, Ru); read-out: Kd1 (first iron binding site)
Assignment: determine reported pKd for the given molecules.
Numbers only, as −log10 of the molar value.

RECORD SMILES: [Fe+3]
pKd: 9.52

Kindly consider the entry below.
Prompt: GET /values?readout=pKd&item= `[Ga+3]`
Completion: 6.48

###

Assignment: determine reported A280 (%) for second site for the given compounds.
molecular target: Gamide (Homo sapiens, UniProt P01350); construct: amidated gastrin34 and amidated gastrin17 (Gamide); purchased Auspep (Clayton, Australia); assay: Absorption spectroscopy (280 nm) of metal ion binding to Gamide, fitted with BioEqs; conditions: Gamide; percentage absorbance at 280 nm, fitted

RECORD SMILES: [Ga+3]
REPORTED ENDPOINT: A280 (%) for second site
TEST VALUE: 335.8%

RECORD SMILES: [In+3]
REPORTED ENDPOINT: A280 (%) for second site
TEST VALUE: 74.1%

RECORD SMILES: [Ru+3]
REPORTED ENDPOINT: A280 (%) for second site
TEST VALUE: 178.6%

Kindly consider the entry below.
Prompt: GET /values?readout=A280 (%) for second site&item= `[Fe+3]`
Completion: 313.4%

###

target: UniProtKB P01350; assay: Absorption spectroscopy (280 nm) of metal ion binding to Ggly, fitted with BioEqs; details: Ggly; percentage absorbance at 280 nm, fitted
Assignment: determine reported A280 (%) for second site for the given compounds.
Give bare numbers, in %.

COMPOUND: [Fe+3] [Fe^3+]
TEST VALUE: 365.9

COMPOUND: [Ga+3] [Ga^3+]
TEST VALUE: 340.2

COMPOUND: [Ru+3] [Ru^3+]
TEST VALUE: 1714.8

Kindly consider the entry below.
Prompt: GET /values?readout=A280 (%) for second site&item= [In+3] [In^3+]
Completion: 72.8

###

molecular target: Ggly (Homo sapiens, UniProt P01350); test: Absorption spectroscopy (280 nm) of metal ion binding to Ggly, fitted with BioEqs
REPORTED ENDPOINT: Kd (nM)
One number for each entry, in nM.

RECORD SMILES: [In+3]
TEST VALUE: 96

For each of the items listed, what is its Kd?
1. [Ru+3]
2. [Ga+3]

Completion:
[1200, 17]
